# assay-name: NCI Yeast Anticancer Drug Screen. Data for the bub3 strain (AID 167)
# test-conditions: S. cerevisiae bub3 mutant strain, at 50.0 µM
This is part of a sample that, as a whole, favours compounds with a hit. Of some 79,000 tested, about 15% had one in any assay. Active and inactive are the calls of the source. No stated cut-off is given here; in the data, active means growth inhibition above about 70%; inactive means the rest.
The categories you may choose from are active, inactive

Examples from the recorded data:
CC1(C)N=C(N)NC(Nc2ccc(Cl)cc2)=N1    inactive
CN(C)CC(Oc1ccccc1)C(=O)c1ccccc1 (stereo not drawn)    inactive
Cc1cccc(C)c1NC(=O)/C(=N/NC(N)=S)C(C)C(=O)c1ccc(Cl)cc1 (stereo not drawn)    inactive
NC1=NC=NCN1c1ccc(N)cc1    inactive
CCCCOC(=O)CCCCCCCCC(=O)OCCCC    inactive

Please share the test call associated with C/C=C\CCCCC . inactive

Please share the test call associated with CCN1c2ccccc2CC(CCN(C)Cc2ccccc2)(C(N)=O)c2ccccc21 (stereo not drawn) . inactive

Please share the test call associated with CN(NC1=NCCO1)c1ccc2ccccc2c1 . inactive

Please share the test call associated with CC(=O)N/C(=C/c1ccccc1)C(=O)NC(C)(C)C . inactive

Please share the test call associated with COc1ccc(NC(=O)Nc2ccc(Cl)cc2C)cc1 . inactive

Please share the test call associated with Cc1cccc(C)c1NC(=O)C1C(=O)N(c2c(C)cccc2C)C(=O)/C1=N\NC(N)=S (stereo not drawn) . inactive

Please share the test call associated with c1ccc(C(C2=Nc3cccc4cccc(c34)N2)c2ccccc2)cc1 . inactive

Please share the test call associated with O=Cc1[nH]c(=S)[nH]c(=O)c1Cc1cccc(Cl)c1 . active

###

# assay-name: NCI Yeast Anticancer Drug Screen. Data for the mlh1 rad18 strain (AID 175)
# test-conditions: S. cerevisiae mlh1 rad18 strain growth inhibition; at 50.0 µM; active compounds read high
This is part of a sample that, as a whole, favours compounds with a hit. Of some 79,000 tested, about 15% had one in any assay. Activity calls are given as the source filed them. Rule as the data show it: active = growth inhibition above about 70%; inactive = the rest.
Readings of growth inhibition for the listed molecules

Check out these entries, answers already filled in.
O=C1CCC2c3ccccc3C(=O)C2C1 (stereo unspecified)    9.3% (inactive)
O=C(O)CCC(=O)Nc1ccc(S(=O)(=O)Nc2nccs2)cc1    -14.6% (inactive)
O=C1NC(=O)c2ccccc2/C1=C/c1ccc2c(c1)OCO2    -26.6% (inactive)

Measured growth inhibition, O=C(Oc1cccc2ccccc12)c1cccnc1 : 31.3% (inactive)

Measured growth inhibition, CC(C)C1OC2(C)OC(=N)C1(C#N)C(C#N)(C#N)C2C (stereo unspecified) : -13.8% (inactive)

Measured growth inhibition, O=C(NCCN1CCOCC1)c1ccc(I)cc1 : 43.3% (inactive)

###

# assay-name: NCI Yeast Anticancer Drug Screen. Data for the sgs1 mgt1 strain (AID 161);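 further: 0% = growth of cultures given vehicle only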
# test-conditions: S. cerevisiae sgs1 mgt1 strain, at 50.0 µM, active compounds read high
# Procedure: Growth inhibition of yeast strains with defined genetic alterations is measured as a screen for potential anti-cancer activity. Selected strains with alterations in DNA damage repair or cell cycle control were exposed to compounds and growth inhibition was measured relative to vehicle treated controls. The strain used in this assay is sgs1 mgt1
The panel holds about 79,000 compounds, 15% with a hit somewhere; the sample as a whole holds those more often.
Readings of growth inhibition for the listed molecules
Write the number in % without appending the unit.

Check out these entries, answers already filled in.
C[N+](C)(C)CCOC(=O)c1ccccc1CCl    31.6
CCCCCCCCCCCCCCCC(=O)OCC1OC(OC2(COC(=O)CCCCCCCCCCCCCCC)OC(COC(=O)CCCCCCCCCCCCCCC)C(OC(=O)CCCCCCCCCCCCCCC)C2OC(=O)CCCCCCCCCCCCCCC)C(OC(=O)CCCCCCCCCCCCCCC)C(OC(=O)CCCCCCCCCCCCCCC)C1OC(=O)CCCCCCCCCCCCCCC (stereo not given)    -34.1
CCOC(=O)CCCN(c1sc(C)c(-c2ccccc2)c1C(=O)OCC)S(=O)(=O)c1ccc(C)cc1    -14.6
CCSc1n[nH]c(=S)c2nc[nH]c12    3.7
O=C(/C=C/c1ccc(O)cc1)NCCc1c[nH]c2ccc(O)cc12    10

Measured growth inhibition, Cc1cccc(NC(=O)/C=C/c2ccccc2)n1 : -4.3

Measured growth inhibition, O=S(=O)(CC1=NC2C=CC=CC2N=C1)NCc1ccccc1 (stereo not given) : 12.8

Measured growth inhibition, COc1cc(C2SCC(=O)N2NC(=O)c2ccc(NC(C)=O)cc2)cc(OC)c1OC (stereo not given) : -5.2

Measured growth inhibition, COc1ccc2c(c1)c(CO)c(CO)c[n+]2[O-] : 16

Measured growth inhibition, O=S(=O)(SSS(=O)(=O)c1ccc(Cl)c(Cl)c1)c1ccc(Cl)c(Cl)c1 : 5.85

Measured growth inhibition, CCc1ccc(NS(=O)(=O)c2ccc3ccccc3c2)cc1 : 96.9

Measured growth inhibition, Cn1c(=O)c2ncn(CC3CCCCC3)c2n(C)c1=O : 5.05

Measured growth inhibition, CN(C)c1ccc(/C=C(\NC(=O)c2ccccc2)C(=O)NC(CC(=O)O)C(=O)O)cc1 (stereo not given) : 17.9

Measured growth inhibition, COc1cc(C(=O)n2c(=O)oc(=O)c3cc([N+](=O)[O-])ccc32)cc(OC)c1OC : -16.4

Measured growth inhibition, CC(=O)C1CCC2C3CC=C4CC(O)C=CC4(C)C3CCC12C (stereo not given) : 11.2
